# Tested on: BTK (Homo sapiens)
# Assay notes: biochemical
# Condition set: read-out: BTK inhibition (%), 0.75 uM BTK, […] probe 3l, 15 min preincubation
Observation type: inhibition at 10 µM (%)
Give your result in % as a bare value.

Write down inhibition at 10 µM measured for item CC/C(=C(\c1ccccc1)c1ccc(OCCN(C)C)cc1)c1ccccc1 7.6

Write down inhibition at 10 µM measured for item Nc1ncnc2c1ncn2[C@H]1C[C@H](O)[C@@H](CO)O1 15.4

Write down inhibition at 10 µM measured for item CC(C)C[C@H](NC(=O)[C@@H](NC(=O)c1cccc(-c2ccccc2)n1)[C@@H](C)O)B(O)O 6.2

Write down inhibition at 10 µM measured for item COc1cc(N2CCC(N3CCN(C)CC3)CC2)ccc1Nc1ncnc(Nc2ccccc2S(=O)(=O)C(C)C)n1 89

Write down inhibition at 10 µM measured for item Nc1nc2c(c(=O)[nH]1)N(C=O)C(CNc1ccc(C(=O)N[C@@H](CCC(=O)O)C(=O)O)cc1)CN2 (some centres unmarked) -17.9

Write down inhibition at 10 µM measured for item Oc1ccc(/C=C/c2cc(O)cc(O)c2)cc1 23.3

Continuing:
Write down inhibition at 10 µM measured for item COc1ccc(-n2c(SCCCN3C(=O)c4cccc5cccc(c45)C3=O)nnc2-c2ccncc2)cc1 -9.3

Write down inhibition at 10 µM measured for item O=c1cc(-c2ccc(O[C@@H]3O[C@H](CO)[C@@H](O)[C@H](O)[C@H]3O)cc2)oc2c([C@@H]3O[C@H](CO)[C@@H](O)[C@H](O)[C@H]3O)c(O)cc(O)c12 -3.9

====

Attribute: inhibition at 10 µM
# Tested on: BTK (Homo sapiens, UniProt Q06187)
# Sequence (Q06187 402-655 limits assumed): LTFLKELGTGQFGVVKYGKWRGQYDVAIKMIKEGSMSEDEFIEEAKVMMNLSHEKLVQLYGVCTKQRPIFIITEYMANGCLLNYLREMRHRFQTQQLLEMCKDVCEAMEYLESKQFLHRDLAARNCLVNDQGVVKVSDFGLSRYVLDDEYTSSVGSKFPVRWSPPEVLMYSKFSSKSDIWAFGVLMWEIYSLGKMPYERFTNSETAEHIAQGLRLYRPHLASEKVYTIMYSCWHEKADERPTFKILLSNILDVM
# Assay notes: biochemical
# Condition set: read-out: BTK inhibition (%), 0.75 uM BTK, […] probe 3l, 15 min preincubation
Give your result in % as a bare value.

// below: answered molecules
State, for BTK (Homo sapiens, UniProt Q06187), measured inhibition at 10 µM of the molecule listed here: CN(C)CCCC1(c2ccc(F)cc2)OCc2cc(C#N)ccc21 (stereo not shown) -14.8

State, for BTK (Homo sapiens, UniProt Q06187), measured inhibition at 10 µM of the molecule listed here: O=C(N[C@H](CO)[C@H](O)c1ccc([N+](=O)[O-])cc1)C(Cl)Cl -8.6

State, for BTK (Homo sapiens, UniProt Q06187), measured inhibition at 10 µM of the molecule listed here: COC(=O)C1=CO[C@@H](O[C@@H]2O[C@H](CO)[C@@H](O)[C@H](O)[C@H]2O)[C@@H]2[C@@]3(C)O[C@H]3[C@@H](O)[C@]12O -0.8

State, for BTK (Homo sapiens, UniProt Q06187), measured inhibition at 10 µM of the molecule listed here: Cc1ccc2nc(CN(CCN(Cc3nc4ccc(C)cc4[nH]3)Cc3nc4ccc(C)cc4[nH]3)Cc3nc4ccc(C)cc4[nH]3)[nH]c2c1 95.8

State, for BTK (Homo sapiens, UniProt Q06187), measured inhibition at 10 µM of the molecule listed here: CN1CCN(c2ccc(C(=O)Nc3n[nH]c4ccc(Cc5cc(F)cc(F)c5)cc34)c(NC3CCOCC3)c2)CC1 103

Continuing:
State, for BTK (Homo sapiens, UniProt Q06187), measured inhibition at 10 µM of the molecule listed here: COc1cc(-c2cc(-c3cccc(O)c3)cnc2N)cc(OC)c1OC 29.3

State, for BTK (Homo sapiens, UniProt Q06187), measured inhibition at 10 µM of the molecule listed here: NC[C@@](O)(c1ccc(Cl)cc1)c1ccc(-c2cn[nH]c2)cc1 -10.3
